- protocol description: protein stability index of a GFP-peptide fusion (GPS, HEK-293T) (PSI 1-6); higher = more stable;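 further: 24-mer peptide tiles fused after GFP, lentivirally expressed, FACS-sorted into six equal bins by GFP/DsRed ratio, decoded by Illumina sequencing, PSI is the read-weighted mean bin number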
- measurement parameters: treatment: DMSO; c terminus: a fixed tail appended
# label = bin(measured protein stability index), where bins are c1: < 3; c2: ≥ 3 and < 4; c3: ≥ 4

APEAKDGSSFSGRVFRVTFLMLAV [APMAP]
c2
GKTPTVRAALICLTLVLVASVLLQ [CD207]
c2
DDCDDDDDDAQILPSPVQACSEDS [DRICH1]
c3

Please report the category associated with GSDSVIMTGAYNNFFRMFDRNTKR [PPP2R2C] , nothing else.
c2

Please report the category associated with EQDAACGFCFFNSVAVAARHAQTI [HDAC6] , nothing else.
c1

Please report the category associated with RELEEYRREVERKQKGSEENLDEA [ADD1] , nothing else.
c3

Please report the category associated with LKDEEGKLKDLSTVTSLQVPVLKP [PPP2R2C] , nothing else.
c3

Please report the category associated with SQVSYFTYIPENNARGASIFSVTA [PCDHGA10] , nothing else.
c1

Please report the category associated with QGPPMVPPYQGGPPRPPMGMRPPV [ZNF207] , nothing else.
c3

Please report the category associated with IHSREKRGDSVKVENPSTASHSLS [ZNF649] , nothing else.
c3
